# target_of_assay: CTLA-4 (human)
# Sequence (chain, as listed by the source): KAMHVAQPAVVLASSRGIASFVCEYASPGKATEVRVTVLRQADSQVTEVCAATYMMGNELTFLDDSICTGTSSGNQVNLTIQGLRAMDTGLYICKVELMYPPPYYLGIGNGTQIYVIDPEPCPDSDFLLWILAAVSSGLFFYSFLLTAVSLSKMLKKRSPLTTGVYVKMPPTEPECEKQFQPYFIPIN
# test_description: flow cytometry, CHO cells expressing CTLA4
property_measured: MFI at 33.3 nM (MFI)

For orientation, consider the following solved cases.
binder: variant CD80 E35D/M47I/T62S/L85Q (Fc fusion) VIHVTKEVKEVATLSCGHNVSVEELAQTRIYWQKDKKMVLTMMSGDINIWPEYKNRTIFDISNNLSIVILALRPSDEGTYECVVQKYEKDAFKREHLAEVT
MFI at 33.3 nM [MFI]: 301000
//
binder: variant CD80 Q33L/E35D/M47I/N48D/A71G (Fc fusion) VIHVTKEVKEVATLSCGHNVSVEELAQTRIYWLKDKKMVLTMMSGDIDIWPEYKNRTIFDITNNLSIVILGLRPSDEGTYECVVLKYEKDAFKREHLAEVT
MFI at 33.3 nM [MFI]: 117000
//
binder: variant CD80 E35D/T41S/M43V/M47I/L70M/A71G (Fc fusion) VIHVTKEVKEVATLSCGHNVSVEELAQTRIYWQKDKKMVLSMVSGDINIWPEYKNRTIFDITNNLSIVIMGLRPSDEGTYECVVLKYEKDAFKREHLAEVT
MFI at 33.3 nM [MFI]: 249000

P = variant CD80 E35D/M47L/A71G/L85M/F92Y (Fc fusion) VIHVTKEVKEVATLSCGHNVSVEELAQTRIYWQKDKKMVLTMMSGDLNIWPEYKNRTIFDITNNLSIVILGLRPSDEGTYECVVMKYEKDAYKREHLAEVT
Q = variant CD80 R29H/E35D/M43V/M47I/I49V (Fc fusion) VIHVTKEVKEVATLSCGHNVSVEELAQTHIYWQKDKKMVLTMVSGDINVWPEYKNRTIFDITNNLSIVILALRPSDEGTYECVVLKYEKDAFKREHLAEVT
Input line: Please state the entry with greater MFI at 33.3 nM among P and Q . Return value: the label identifying the chosen record.
Output line: P
(P: 216000 MFI, Q: 4690 MFI)
